Tested on: SK-OV-3 ovarian
Run Description: NCI-60 one-dose screen, 48 h
Condition Label: 10 µM unless noted
The panel holds about 83,000 compounds, 20% with a hit somewhere; the sample as a whole holds those more often. The source made the active and inactive calls. How the source made its calls: active means growth percent below 10; inactive means the rest.
One label from this list, please: active, inactive

Worked examples follow.
O=C(CSc1nc2ccc([N+](=O)[O-])cc2[nH]1)Nc1ccc(F)cc1 inactive
O=C1c2cccnc2C(=O)c2c1c(C(=O)NCCn1ccnc1)c1ccccn21 inactive
CCn1c(=S)[nH]c2c(=O)n(C)c(=O)n(C)c21 inactive
COC(=O)[C@]1(C)CCC[C@]2(C)[C@H]3C[C@H]4C(C(C)C)=C[C@]3(CC[C@H]21)[C@H]1[C@@H]4[C@@H](OCCC#N)CC[C@@H]1OCCC#N inactive
O=C(O)CNC1=C(Cl)C(=O)c2ccccc2C1=O inactive
CC(C)N1CCN(Cc2ccc3c(NNC(=O)c4ccccc4)nc4cc(F)ccc4n23)CC1 inactive
Cc1noc(C)c1C(=O)OCc1coc2ccccc2c1=O inactive
O=Nc1c(-c2c(O)[nH]c3ncccc23)[nH]c2ccccc12 active
O=C(NCCCCNC(=O)OCc1ccc2c(Cl)cc(Cl)c(O)c2n1)OCc1ccc2c(Cl)cc(Cl)c(O)c2n1 inactive

Proceed to the following item.
Any idea what this test logged for CN(CCn1sc(=O)n(Cc2ccccc2)c1=O)Cc1ccc2c(Cl)cc(Cl)c(O)c2n1 ?
inactive

---

Hi there, I'd appreciate the recorded growth for every entry that follows.
Tested on: TK-10 renal
Run Description: NCI-60 one-dose screen, 48 h (100 = growth as untreated, 0 = no growth, -100 = all killed)
Condition Label: 10 µM unless noted
Compounds without any hit were thinned out: in the full panel of roughly 83,000, 20% have a hit.
Numbers only, in %.

Below is a list of compounds. For each, state its recorded growth.
1. COC1=CC(c2ccc[nH]2)=N/C1=C\c1[nH]c(C)c(C(=O)OCc2ccccc2)c1C
2. C#CCOc1ccc2ncnc(Nc3cccc(NC(=O)C=C)c3)c2c1
3. CC(C)(C)c1cc(-c2nc3ccc(N4CCN(S(C)(=O)=O)CC4)cc3[nH]2)cc(C(C)(C)C)c1O
4. Fc1ccc(-c2nn(-c3ccccc3)cc2-c2nc3ccccc3o2)cc1
5. CC(=O)c1cc(O)c2ccccc2c1O
6. COc1ccc(-c2csc(NC(=O)CSc3nc(-c4ccccc4)cc(=O)[nH]3)n2)cc1

-4.94
45.2
90.4
126
148
78.9

---

Test system: SR leukemia
Run Description: NCI-60 one-dose screen, 48 h (100 = growth as untreated, 0 = no growth, -100 = all killed)
Condition Label: 10 µM unless noted
Compounds without any hit were thinned out: in the full panel of roughly 83,000, 20% have a hit.
Measured Attribute: growth (%)
One number for each entry, in %.

Example cases with answers are listed next.
Compound	growth (%)
CCCCCC(=O)OCC(=O)O[C@@H]1C[C@]2(C(C)C)O[C@@]1(C)[C@@H]1CC[C@@H](C)[C@H]1[C@@H]2OC(=O)/C=C/c1ccccc1	76.3
OCCNCCCOc1ccc2ncnc(Nc3ccc(Oc4cccc(C(F)(F)F)c4)c(Cl)c3)c2c1	5.48
Cc1nc2sc(C(=O)Nc3ccccc3)c(N)c2cc1C(=O)c1ccccc1	8.32
Cc1ccc(C2=Nc3c(N)ncnc3NC(c3ccc4c(c3)OCO4)C2)cc1 (stereo not given)	15.8
O=C(O)[C@@H]1c2ccccc2-c2ccccc2[C@H]1C(=O)O	116
Cc1ccc(NC(=S)NNC(=S)NNc2ccccc2)cc1C	56.8
CC(=O)Cc1nsc(NC(=O)c2cc(-c3cc(Cl)cc(Cl)c3)oc2C)n1	98.3
CCCCNC(=O)Oc1ccc(/C(=C(/CC)Cc2ccccc2)c2ccc(OCCN3CCCCCC3)cc2)cc1	-24.6
COc1cc(-c2cc(-c3cccs3)c(C#N)c(N3CCOCC3)n2)cc(OC)c1OC	-1.19
N#CC1=C(N)Oc2c(sc3c(F)cccc23)C1c1ccc(F)cc1 (stereo not given)	30.6

Quick batch: growth for everything below.
1. COC(=O)c1n[nH]c2ccc3nc(-c4cn[nH]c4C(F)(F)F)c4c(c3c12)CCCC4
2. C#CCn1cnc2c(Nc3cccc(NC(=O)C=C)c3)ncnc21
3. CC(O)c1cnc(/C=C2\SC(=S)N(Cc3ccccc3)C2=O)s1 (stereo not given)
4. Cc1ccc(C(C(N)=O)C(C(N)=O)c2ccccc2)cc1 (stereo not given)
5. O=C1C(Cl)=C(Nc2ccc(O)cc2)C(=O)N1Cc1ccc(Cl)cc1
6. C1=CN2CC(c3ccccc3)=NNC2c2ccccc21 (stereo not given)
7. COC(=O)[C@]1(C)CCC[C@]2(C)[C@H]3C[C@H]4C(C(C)C)=C[C@]3(CC[C@H]21)[C@H]1[C@@H]4[C@@H](OCCC#N)CC[C@@H]1OCCC#N
8. CN(CCOc1ccc(C#N)cc1)CCOc1ccc(C#N)cc1

1. 11.9
2. 68.5
3. 32
4. 92
5. 5.96
6. 97
7. 2.88
8. 49.6

For every item below, please supply its growth.
1. O=C1N[C@@H]2NC(=[N+]3CCOCC3)N[C@@H]2N1
2. COc1cc(-n2cc(-c3cc(O)c(C/C=C(\C)CCC=C(C)C)c(O)c3)nn2)cc2c1O[C@]1(C)CC[C@@H](O)C(C)(C)[C@H]1C2
3. CN(C)CCCC1(c2ccc(F)cc2)OCc2cc(-c3cccc4[nH]ccc34)ccc21 (stereo not given)
4. N#Cc1c(NC(=O)c2ccccc2)sc2c1CCC(=O)C2

1. 111
2. 4.49
3. -14.9
4. 7.72

Quick one: give me growth for each item below, same order please.
1. O=C1C(Cl)=C(Oc2ccccc2)C(=O)c2ccccc21
2. CC(C)CCC[C@@H](C)[C@H]1CC[C@H]2[C@@H]3CC=C4C[C@@H](C(C(=O)O)C(=O)O)CC[C@]4(C)[C@H]3CC[C@]12C
3. CC1(C)c2[nH]c3ccccc3c2C[C@]2(C)[C@H]3CC=C4[C@@H]5C[C@@](C)(C(N)=O)CC[C@]5(C)CC[C@@]4(C)[C@]3(C)CC[C@@H]12
4. Cc1ccc(-c2nc3nc(-c4ccccc4)nc(N4CCNCC4)c3o2)cc1
5. Cc1nnc(-n2c(O)cc(=O)n(-c3ccccc3)c2=S)nc1/C=C/c1ccc(N(C)C)cc1
6. COc1ccc2c3c([nH]c2c1)C(=O)c1nc(C)ccc1C3=O

[48.8, -39.7, 34.3, -43, 36.2, 37.4]

---

Test system: TK-10 renal
Run Description: NCI-60 one-dose screen, 48 h
Condition Label: 10 µM unless noted
The panel holds about 83,000 compounds, 20% with a hit somewhere; the sample as a whole holds those more often. Activity calls are given as the source filed them. Rule for the calls: active = growth percent below 10; inactive = the rest.
Select the matching outcome among yes = active, no = inactive

Consider the worked cases shown below.
Compound	Group
Nc1nc(=S)c2ncn(C3OC(COP(=O)(O)O)C(O)C3O)c2[nH]1 (stereo unspecified)	yes
CCCCCCC1(C)NCCO1 (stereo unspecified)	no
O=C1/C(=C\c2cn(-c3ccccc3)nc2-c2ccc(-c3cccs3)cc2)CCc2ccccc21	no
O=C(Nc1cccc([N+](=O)[O-])c1)c1cc2ccccc2cc1O	no
CCOC(=O)c1c2c(n3ccc(C)cc13)C(=O)c1ccccc1C2=O	no

Attention now shifts to the item below.
Just curious, what result did O=C(NCCCCNC(=O)OCc1ccc2c(Cl)cc(Cl)c(O)c2n1)OCc1ccc2c(Cl)cc(Cl)c(O)c2n1 get here?
no

---

I'd be grateful if you could share measured growth for these entries.
System: SF-539 CNS
Run Description: NCI-60 one-dose screen, 48 h (100 = growth as untreated, 0 = no growth, -100 = all killed)
Condition Label: 10 µM unless noted
About 83,000 compounds went through this panel and 20% of them were active in at least one assay; those are over-represented in the sample as a whole.
Numbers only, in %.

Compound	growth (%)
Cc1cc(N)c2cc(NC(=O)/C=C\c3ccccc3Cl)ccc2n1	-91.3

I have 5 compounds here; please give me growth for each one.
1. O=S(=O)(Nc1ccc(Cl)cc1)c1ccc(-c2cnc(C3CC3)o2)cc1
2. CCCCCCCCCCCCCCCC(N)c1ccccc1 (stereo unspecified)
3. Cc1ccc(Cc2cnc(NC(=O)c3cc(Br)cs3)s2)cc1
4. N#CC1=C(N)Oc2c(sc3c(Br)cccc23)C1c1ccc(F)cc1 (stereo unspecified)
5. O=C1/C(=C/c2cccs2)SC(=S)N1CCCN1CCOCC1

[-14.6, 88.4, 66.4, -27.1, 92.7]

Go through the items and report each one's growth.
1. Fc1cccc(CNc2c3ccccc3nc3ccccc23)c1F
2. O=C(c1ccc(Cl)cc1)N1CCN(c2ccnc3cc(Cl)ccc23)CC1
3. Cn1ccc2c3c(ccc21)CC3=O
4. CCCCCCCCn1ccc2cc(NC(=O)Cn3cc(CN4CCCCC4)nn3)ccc21
5. CC(=O)Nc1nc2ccc(NS(=O)(=O)c3cccc4c(N(C)C)cccc34)cc2[nH]1

1: 55.5; 2: 100; 3: 126; 4: -42.3; 5: 57.9
